# test_description: Pharmacokinetics of intravenous injection in rats (plasma)
# Format: in vivo
# experimental_parameters: plasma; rat, intravenous (I.V.), 10 mg/kg
observable: AUC(0-inf)
Value and unit, in that order.

What value of AUC(0-inf) has been reported for the following compound? `CC1(C)C[C@H]2C3=CC[C@@H]4[C@@]5(C)CC[C@H](O)[C@](C)(CO)[C@@H]5CC[C@@]4(C)[C@]3(C)CC[C@@]2(C)[C@H](O)[C@@H]1O` 69400 ng·h/mL

###

# test_description: Pharmacokinetics of oral administration in rats (plasma)
# Type: in vivo
# experimental_parameters: plasma; rat, oral (P.O.), 20 mg/kg; read-out: CLz/F (clearance) (converted)
observable: CL/F (mL/min/kg)
A number alone suffices; assume mL/min/kg.

Look up CL/F: `CC1(C)C[C@H]2C3=CC[C@@H]4[C@@]5(C)CC[C@H](O)[C@](C)(CO)[C@@H]5CC[C@@]4(C)[C@]3(C)CC[C@@]2(C)[C@H](O)[C@@H]1O` 3.48

###

# test_description: Pharmacokinetics of oral administration in rats (plasma)
# Assay type: in vivo
# experimental_parameters: rat, plasma, po, 10 mg/kg, oral (P.O.), 10 mg/kg, read-out: Cmax (peak concentration)
observable: Cmax

Reported Cmax, molecule `CC1(C)C[C@H]2C3=CC[C@@H]4[C@@]5(C)CC[C@H](O)[C@](C)(CO)[C@@H]5CC[C@@]4(C)[C@]3(C)CC[C@@]2(C)[C@H](O)[C@@H]1O` : ____ 8590 ng/mL

###

# test_description: Pharmacokinetics of oral administration in rats (plasma)
# Type: in vivo
# experimental_parameters: plasma; rat, oral (P.O.), 10 mg/kg
observable: AUC(0-inf) (ng·h/mL)
Provide only the numeric value, understood in ng·h/mL.

State the recorded AUC(0-inf) for this entry: CC1(C)C[C@H]2C3=CC[C@@H]4[C@@]5(C)CC[C@H](O)[C@](C)(CO)[C@@H]5CC[C@@]4(C)[C@]3(C)CC[C@@]2(C)[C@H](O)[C@@H]1O [Soyasapogenol A] 50700

###

# test_description: Pharmacokinetics of intravenous injection in rats (plasma)
# Format: in vivo
# experimental_parameters: plasma; rat, intravenous (I.V.), 10 mg/kg
observable: Cmax (ng/mL)
A number alone suffices; assume ng/mL.

Look up Cmax: `CC1(C)C[C@H]2C3=CC[C@@H]4[C@@]5(C)CC[C@H](O)[C@](C)(CO)[C@@H]5CC[C@@]4(C)[C@]3(C)CC[C@@]2(C)[C@H](O)[C@@H]1O` 31700

###

# test_description: Pharmacokinetics of oral administration in rats (plasma)
# Format: in vivo
# experimental_parameters: plasma; rat, oral (P.O.), 20 mg/kg, mean n = 6
observable: AUC(0-t) (ng·h/mL)
Kindly provide the numeric value in ng·h/mL only, without the unit symbol.

I would be grateful if you could share the reported AUC(0-t) for `CC1(C)C[C@H]2C3=CC[C@@H]4[C@@]5(C)CC[C@H](O)[C@](C)(CO)[C@@H]5CC[C@@]4(C)[C@]3(C)CC[C@@]2(C)[C@H](O)[C@@H]1O` . 88600

###

# test_description: Pharmacokinetics of oral administration in rats (plasma)
# Assay type: in vivo
# experimental_parameters: plasma, oral; rat, 20 mg/kg by gavage, 1.0 h postadministration
# Procedure: The experiments were performed according to Kamo et al. The rats were divided into three groups (n = 8). All rats were fasted for 14–15 h prior to soyasapogenol A or B administration. All rats were orally administered soyasapogenol A or B via direct stomach intubation. […] The soyasapogenol concentrations in the rat plasma solutions were determined according to the method published in [5]. […] Subsequently, after filtration, the samples were analyzed according to the method published in [5]. […]
observable: concentration at 1 h

Which concentration at 1 h is reported for this compound? `CC1(C)C[C@H]2C3=CC[C@@H]4[C@@]5(C)CC[C@H](O)[C@](C)(CO)[C@@H]5CC[C@@]4(C)[C@]3(C)CC[C@@]2(C)[C@H](O)[C@@H]1O` 7000 ng/mL
